Tested on: Bla g-specific T cells (PBMC)
Assay: ELISPOT assays: IL-5, IFN-γ and IL-10 production by in vitro expanded PBMC of Cockroach-allergic donors
Type: cell-based, human
Settings: share of total Bla g specific response
Protocol: In vitro expansion of Bla g-specific T cells: PBMC were cultured in RPMI 1640 (V Scientific, Tarzana, Calif.) supplemented with 5% human serum (Cellgro, Herndon, Va.) at a density of 2×10^6 cells/ml in 24-well plates (BD Biosciences, San Jose, Calif.) and stimulated with 25 μg/ml German Cockroach (Blatella germanica; Bla g) extract (Greer, Lenoir, N.C.), or individual peptides. […] ELISPOT assays: The production of IL-5, IFN-γ, and IL-10 was analyzed in ELISPOT assays. […]
quantity-measured: % Total Response (%)
Write down the numeric answer in % and omit the unit.

Exam item: Recorded % Total Response for LIDDVLAILPLDDLK (listed as Blattella germanica) [Region 2, Bla g 1 position 331] , please?
Marked response: 4.7

Exam item: Look at this sequence and give its reported % Total Response. EAMEKELREAFRLYD (listed as Blattella germanica) [Region 21, Bla g 6 position 86]
Marked response: 0.2

Exam item: Please give the measured % Total Response for this sequence: PLYKLVHVFINTQYA (listed as Blattella germanica) [Region 6, Bla g 2 position 26]
Marked response: 1.0

Exam item: Give the measured % Total Response of ISSQYYIQQNGNLCY (listed as Blattella germanica) [Region 8, Bla g 2 position 296] .
Marked response: 0.6

Exam item: Query (sequence): GNQNFLTVFDSTSCN (listed as Blattella germanica) [Region 7, Bla g 2 position 46] ; field requested: % Total Response
Marked response: 0.2

Exam item: Which % Total Response value is on record for FAVATITHAAELQRV (listed as Blattella germanica) [Region 5, Bla g 2 position 11] ?
Marked response: 3.5

Exam item: Need % Total Response of PELQNFLNFLEANGL (listed as Blattella germanica) [Region 4, Bla g 1 position 281] , thanks.
Marked response: 1.3

----------
Could you please report measured IL-5 for the items listed next?
test system: Bla g-specific T cells (PBMC); assay: ELISPOT assays: IL-5, IFN-γ and IL-10 production by in vitro expanded PBMC of Cockroach-allergic donors; assay type: cell-based, human; conditions: individual peptide, one line per responding donor
Respond numerically; units are SFC and should not be typed.

Exam item: GET /values?readout=IL-5&system=Bla g-specific T cells (PBMC)&item= HFFIGDFFVDHYYSE (listed as Blattella germanica) [Region 9, Bla g 2 position 321]
Marked response: 0

Exam item: Record GNQNFLTVFDSTSCN (listed as Blattella germanica) [Region 7, Bla g 2 position 46] : what is its IL-5 with Bla g-specific T cells (PBMC)?
Marked response: 0

Exam item: IL-5 of EEFVSLASRFLVEED (listed as Blattella germanica) on Bla g-specific T cells (PBMC)?
Marked response: 0

Exam item: Form field: IL-5 recorded for LRKAFDAFDREKSGS (listed as Blattella germanica) with Bla g-specific T cells (PBMC) (enter value)
Marked response: 327

Exam item: Return IL-5 measured with Bla g-specific T cells (PBMC) given this sequence: PELQNFLNFLEANGL (listed as Blattella germanica) [Region 4, Bla g 1 position 281]
Marked response: 0

Exam item: # returns recorded IL-5 (system: Bla g-specific T cells (PBMC)) for SGTVDFDEFMEMMTG (listed as Blattella germanica) [Region 22, Bla g 6 position 140]
Marked response: 57

Exam item: Fill in the recorded IL-5 for this sequence, with Bla g-specific T cells (PBMC) as test system: EQISVLRKAFDAFDR (listed as Blattella germanica)
Marked response: 340

Exam item: // fetch Bla g-specific T cells (PBMC) IL-5 for LIDDVLAILPLDDLK (listed as Blattella germanica) [Region 2, Bla g 1 position 331]
Marked response: 997

Exam item: Test system Bla g-specific T cells (PBMC); read-out IL-5; what value for EAMEKELREAFRLYD (listed as Blattella germanica) [Region 21, Bla g 6 position 86] ?
Marked response: 53

Exam item: # query: IL-5 | item GYITTNVLREILKEL (listed as Blattella germanica) [Region 25] | system: Bla g-specific T cells (PBMC)
Marked response: 50

Exam item: So what IL-5 did MVGTILEMLGTRLDQ (listed as Blattella germanica) get with Bla g-specific T cells (PBMC)?
Marked response: 267

Exam item: Provide the documented IL-5 with Bla g-specific T cells (PBMC) as the system for GEPIRFLLSYGEKDF (listed as Blattella germanica)
Marked response: 0

Exam item: Which IL-5 is reported with Bla g-specific T cells (PBMC) for this entry: FETIVVTVDSLPEFK (listed as Blattella germanica) [Region 1, Bla g 1 position 351] ?
Marked response: 0

Exam item: Write down the reported IL-5 of ISSQYYIQQNGNLCY (listed as Blattella germanica) [Region 8, Bla g 2 position 296] , test system: Bla g-specific T cells (PBMC).
Marked response: 0

Exam item: Find the measured IL-5: item EEFCTLASRFLVEED (listed as Blattella germanica) [Region 20, Bla g 6 position 66] , target or system Bla g-specific T cells (PBMC).
Marked response: 1213

Exam item: Provide the documented IL-5 with Bla g-specific T cells (PBMC) as the system for IVQTLNAMPEYQNLL (listed as Blattella germanica)
Marked response: 87

Exam item: Lab request: please report IL-5 under test system Bla g-specific T cells (PBMC) for MVGTILEMLGHRLDD (listed as Blattella germanica) [Region 24, Bla g 6 position 31]
Marked response: 50

----------
test system: Bla g-specific T cells (PBMC); assay: ELISPOT assays: IL-5, IFN-γ and IL-10 production by in vitro expanded PBMC of Cockroach-allergic donors; format: cell-based, human; details: share of total Bla g specific response
I'd appreciate it if you could supply % Total Response values for the items below.
Kindly answer with a numeric value in %, unit omitted.

Exam item: For GEPIRFLLSYGEKDFEDYRF (listed as Blattella germanica) [Region 10, Bla g 5 position 16] , what is its reported % Total Response?
Marked response: 9.6

Exam item: Param item = VAISRYLGKQFGLSG (listed as Blattella germanica) [Region 12, Bla g 5 position 66] ; retrieve measured % Total Response.
Marked response: 10.0

Exam item: Dear colleague, I am looking for the recorded % Total Response of the following sequence: SMPFGKTPVLEIDGK (listed as Blattella germanica) [Region 11, Bla g 5 position 46]
Marked response: 3.6

Numbers sourced from patent US11421006B2.
